assay: Rat pharmacokinetics; type: in vivo, Sprague-Dawley rats; conditions: male, Sprague-Dawley, PO 10 mg/kg, plasma, read-out: T1/2z (converted)
assay-endpoint: half-life (h)
Express your answer in h, writing the number without its unit.

## Task Data request, read-out half-life, for CC(C)c1nn([C@@H]2O[C@H](COS(N)(=O)=O)[C@@H](O)[C@H]2O)c2ncnc(N)c12 [ML471]
## Result 9.15

====

assay: Rat pharmacokinetics; format: in vivo, Sprague-Dawley rats; conditions: male, Sprague-Dawley, whole blood, PO 1 mg/kg, blood
assay-endpoint: Tmax

## Task Data request, read-out Tmax, for CC(C)c1nn([C@@H]2O[C@H](COS(N)(=O)=O)[C@@H](O)[C@H]2O)c2ncnc(N)c12 [ML471]
## Result 16 h

====

assay: Rat pharmacokinetics; type: in vivo, Sprague-Dawley rats; settings: male, Sprague-Dawley, PO 1 mg/kg, plasma
assay-endpoint: Cmax (nM)
Express your answer in nM, writing the number without its unit.

## Task Data request, read-out Cmax, for CC(C)c1nn([C@@H]2O[C@H](COS(N)(=O)=O)[C@@H](O)[C@H]2O)c2ncnc(N)c12 [ML471]
## Result 19.1

====

assay: Blood exposure in the P. falciparum infected SCID mouse model; assay type: in vivo, NODscidIL2Rγ^null mice engrafted with human RBCs; details: female, NODscidIL2Rγ^null, mouse, whole blood, po, 200 mg/kg, 1 x 200 mg/kg p.o., mice M3, M4, read-out: Tmax (individual mice)
assay-endpoint: Tmax (h)
Express your answer in h, writing the number without its unit.

## Task Data request, read-out Tmax, for CC(C)c1nn([C@@H]2O[C@H](COS(N)(=O)=O)[C@@H](O)[C@H]2O)c2ncnc(N)c12
## Result 4

====

Please provide measured IC50 for the entries that follow.

## Task Param readout = IC50; param system = SAE (SUMO-activating enzyme) (Homo sapiens, UniProt Q9UBT2); param query = Nc1ncnc2c1c(OC(F)F)nn2[C@@H]1O[C@H](COS(N)(=O)=O)[C@@H](O)[C@H]1O [ML901] ; response: value
Sequence (Q9UBT2 whole entry): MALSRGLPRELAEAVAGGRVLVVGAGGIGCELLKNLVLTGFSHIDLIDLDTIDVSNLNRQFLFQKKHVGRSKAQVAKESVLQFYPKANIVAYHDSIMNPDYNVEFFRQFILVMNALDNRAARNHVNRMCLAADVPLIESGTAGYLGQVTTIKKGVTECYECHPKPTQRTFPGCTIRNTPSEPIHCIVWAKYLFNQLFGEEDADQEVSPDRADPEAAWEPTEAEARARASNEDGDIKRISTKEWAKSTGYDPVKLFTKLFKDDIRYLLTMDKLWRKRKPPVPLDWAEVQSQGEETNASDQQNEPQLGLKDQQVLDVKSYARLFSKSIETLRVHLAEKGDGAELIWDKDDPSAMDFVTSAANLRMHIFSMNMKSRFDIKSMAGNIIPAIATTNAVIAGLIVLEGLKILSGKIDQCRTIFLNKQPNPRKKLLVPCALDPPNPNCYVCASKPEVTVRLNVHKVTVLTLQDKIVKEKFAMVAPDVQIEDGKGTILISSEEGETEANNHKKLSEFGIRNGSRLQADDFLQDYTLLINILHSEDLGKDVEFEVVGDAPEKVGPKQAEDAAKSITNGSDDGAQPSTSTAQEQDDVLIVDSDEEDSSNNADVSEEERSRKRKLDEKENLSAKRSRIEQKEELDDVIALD
Sequence (Q9UBE0 whole entry partner): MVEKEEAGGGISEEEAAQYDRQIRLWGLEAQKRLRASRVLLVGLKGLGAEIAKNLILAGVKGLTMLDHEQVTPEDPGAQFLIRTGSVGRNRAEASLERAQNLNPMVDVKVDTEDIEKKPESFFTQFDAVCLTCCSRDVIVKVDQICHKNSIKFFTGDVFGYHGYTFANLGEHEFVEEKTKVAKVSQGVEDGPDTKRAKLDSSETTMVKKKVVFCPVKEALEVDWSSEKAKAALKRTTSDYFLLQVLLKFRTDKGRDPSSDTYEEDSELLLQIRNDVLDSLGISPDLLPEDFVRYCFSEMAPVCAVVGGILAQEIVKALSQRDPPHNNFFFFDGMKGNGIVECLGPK
## Result > 100 µM

## Task Param readout = IC50; param system = SAE (SUMO-activating enzyme) (Homo sapiens, UniProt Q9UBT2); param query = CC(C)c1nn([C@@H]2O[C@H](COS(N)(=O)=O)[C@@H](O)[C@H]2O)c2ncnc(N)c12 [ML471] ; response: value
## Result > 100 µM

## Task Param readout = IC50; param system = SAE (SUMO-activating enzyme) (Homo sapiens, UniProt Q9UBT2); param query = Nc1ncnc2c1c(C(F)(F)F)nn2[C@@H]1O[C@H](COS(N)(=O)=O)[C@@H](O)[C@H]1O [ML107] ; response: value
## Result 78.5 µM

## Task Param readout = IC50; param system = SAE (SUMO-activating enzyme) (Homo sapiens, UniProt Q9UBT2); param query = CCc1nn([C@@H]2O[C@H](COS(N)(=O)=O)[C@@H](O)[C@H]2O)c2ncnc(N)c12 [ML681] ; response: value
## Result 22.4 µM

## Task Param readout = IC50; param system = SAE (SUMO-activating enzyme) (Homo sapiens, UniProt Q9UBT2); param query = Nc1ncnc2c1c(Oc1ccccc1)nn2[C@@H]1O[C@H](COS(N)(=O)=O)[C@@H](O)[C@H]1O [ML470] ; response: value
## Result > 100 µM

## Task Param readout = IC50; param system = SAE (SUMO-activating enzyme) (Homo sapiens, UniProt Q9UBT2); param query = CC(C)Oc1nn([C@@H]2O[C@H](COS(N)(=O)=O)[C@@H](O)[C@H]2O)c2ncnc(N)c12 [ML723] ; response: value
## Result > 100 µM

## Task Param readout = IC50; param system = SAE (SUMO-activating enzyme) (Homo sapiens, UniProt Q9UBT2); param query = CCOc1nn([C@@H]2O[C@H](COS(N)(=O)=O)[C@@H](O)[C@H]2O)c2ncnc(N)c12 [ML676] ; response: value
## Result 31.4 µM

====

tested on: P. falciparum liver stage schizont (NF135); assay: Liver stage schizont assay in primary human hepatocytes (NF135); assay type: cell-based; conditions: Plasmodium falciparum, Hepatocyte, 96 h, four days
assay-endpoint: pIC50
Entry type: numeric. Quantity: pIC50, the -log10 of concentration in molar units.

## Task Data request, read-out pIC50, for Nc1ncnc2c1c(OC(F)F)nn2[C@@H]1O[C@H](COS(N)(=O)=O)[C@@H](O)[C@H]1O
## Result 8.54

## Task Data request, read-out pIC50, for CC(C)c1nn([C@@H]2O[C@H](COS(N)(=O)=O)[C@@H](O)[C@H]2O)c2ncnc(N)c12
## Result 8.26

## Task Data request, read-out pIC50, for CS(=O)(=O)c1ccc(-c2cnc(N)c(-c3ccc(C(F)(F)F)nc3)c2)cc1 [MMV390048, reference compound]
## Result 7.63

====

Please provide measured ΔTm at 50 µM for the entries that follow.
target: PfTyrRS (Plasmodium falciparum); experiment: Differential scanning fluorimetry (DSF) of PfTyrRS; format: binding; conditions: 50 μM sulfamate, ATP, tyrosine, PftRNA^Tyr, 37°C 2 h; read-out: PfTyrRS binding (DSF) Delta Tm
Sequence (Q8IAR7 entry or part of it): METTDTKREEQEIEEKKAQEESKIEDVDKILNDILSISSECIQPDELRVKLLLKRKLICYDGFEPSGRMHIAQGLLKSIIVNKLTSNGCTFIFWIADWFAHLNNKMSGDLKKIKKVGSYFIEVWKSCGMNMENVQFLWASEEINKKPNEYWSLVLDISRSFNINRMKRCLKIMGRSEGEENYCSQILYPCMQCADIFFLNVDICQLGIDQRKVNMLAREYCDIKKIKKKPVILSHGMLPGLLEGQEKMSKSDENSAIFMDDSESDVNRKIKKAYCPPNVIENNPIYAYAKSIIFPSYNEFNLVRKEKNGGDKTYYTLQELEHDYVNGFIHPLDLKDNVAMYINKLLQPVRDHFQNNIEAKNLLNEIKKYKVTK
Express your answer in °C, writing the number without its unit.

## Task Data request, read-out ΔTm at 50 µM, for CCOc1nn([C@@H]2O[C@H](COS(N)(=O)=O)[C@@H](O)[C@H]2O)c2ncnc(N)c12 [ML676]
## Result 15.7

## Task Data request, read-out ΔTm at 50 µM, for CCc1nn([C@@H]2O[C@H](COS(N)(=O)=O)[C@@H](O)[C@H]2O)c2ncnc(N)c12 [ML681]
## Result 16.4

## Task Data request, read-out ΔTm at 50 µM, for CC(C)Oc1nn([C@@H]2O[C@H](COS(N)(=O)=O)[C@@H](O)[C@H]2O)c2ncnc(N)c12 [ML723]
## Result 16.2

## Task Data request, read-out ΔTm at 50 µM, for Nc1ncnc2c1c(C1CC1)nn2[C@@H]1O[C@H](COS(N)(=O)=O)[C@@H](O)[C@H]1O [ML864]
## Result 17

## Task Data request, read-out ΔTm at 50 µM, for Nc1ncnc2c1c(OC(F)F)nn2[C@@H]1O[C@H](COS(N)(=O)=O)[C@@H](O)[C@H]1O [ML901]
## Result 15.2

## Task Data request, read-out ΔTm at 50 µM, for CC(=O)c1nn([C@@H]2O[C@H](COS(N)(=O)=O)[C@@H](O)[C@H]2O)c2ncnc(N)c12 [ML111]
## Result 15.1

## Task Data request, read-out ΔTm at 50 µM, for CC(C)c1nn([C@@H]2O[C@H](COS(N)(=O)=O)[C@@H](O)[C@H]2O)c2ncnc(N)c12 [ML471]
## Result 18

## Task Data request, read-out ΔTm at 50 µM, for Nc1ncnc2c1c(Oc1ccccc1)nn2[C@@H]1O[C@H](COS(N)(=O)=O)[C@@H](O)[C@H]1O [ML470]
## Result 15.7

## Task Data request, read-out ΔTm at 50 µM, for Nc1ncnc2c1c(C(F)(F)F)nn2[C@@H]1O[C@H](COS(N)(=O)=O)[C@@H](O)[C@H]1O [ML107]
## Result 13.6

====

assay: Rat pharmacokinetics; format: in vivo, Sprague-Dawley rats; conditions: male, Sprague-Dawley, PO 10 mg/kg, plasma
assay-endpoint: Tmax (min)
Express your answer in min, writing the number without its unit.

## Task Data request, read-out Tmax, for CC(C)c1nn([C@@H]2O[C@H](COS(N)(=O)=O)[C@@H](O)[C@H]2O)c2ncnc(N)c12
## Result 22.8

====

test: Rat pharmacokinetics; format: in vivo, Sprague-Dawley rats; settings: male, Sprague-Dawley, whole blood, oral, blood, range over doses, read-out: %F (blood), rat oral bioavailability
assay-endpoint: bioavailability

## Task Data request, read-out bioavailability, for CC(C)c1nn([C@@H]2O[C@H](COS(N)(=O)=O)[C@@H](O)[C@H]2O)c2ncnc(N)c12 [ML471]
## Result 8.72 to 9.56%

====

Assay: Caco-2 permeability
Type: in vitro ADME
Details: human, 5 μM, 60 min, third figure of the cell, read-out: Caco2 Papp (B to A)
Method: Permeability studies were performed as described previously. In brief, Caco-2 cells were cultured for 21–25 days to differentiate them into enterocyte-like cells. The transepithelial electrical resistance (TEER) was measured to ensure tight junction formation and cells with TEER value more than 250 ohms.cm^2 were used in the study. […] Samples were centrifuged at 2,056 x g for 10 min and the supernatant was collected and analyzed for quantification of the test article by LC-MS [49].
assay-endpoint: Papp B→A at 60 min, 5 μM (×10⁻⁶ cm/s)
Express your answer in ×10⁻⁶ cm/s, writing the number without its unit.

## Task Data request, read-out Papp B→A at 60 min, 5 μM, for CC(C)c1nn([C@@H]2O[C@H](COS(N)(=O)=O)[C@@H](O)[C@H]2O)c2ncnc(N)c12 [ML471]
## Result 1.3
